Protein target, amino acids: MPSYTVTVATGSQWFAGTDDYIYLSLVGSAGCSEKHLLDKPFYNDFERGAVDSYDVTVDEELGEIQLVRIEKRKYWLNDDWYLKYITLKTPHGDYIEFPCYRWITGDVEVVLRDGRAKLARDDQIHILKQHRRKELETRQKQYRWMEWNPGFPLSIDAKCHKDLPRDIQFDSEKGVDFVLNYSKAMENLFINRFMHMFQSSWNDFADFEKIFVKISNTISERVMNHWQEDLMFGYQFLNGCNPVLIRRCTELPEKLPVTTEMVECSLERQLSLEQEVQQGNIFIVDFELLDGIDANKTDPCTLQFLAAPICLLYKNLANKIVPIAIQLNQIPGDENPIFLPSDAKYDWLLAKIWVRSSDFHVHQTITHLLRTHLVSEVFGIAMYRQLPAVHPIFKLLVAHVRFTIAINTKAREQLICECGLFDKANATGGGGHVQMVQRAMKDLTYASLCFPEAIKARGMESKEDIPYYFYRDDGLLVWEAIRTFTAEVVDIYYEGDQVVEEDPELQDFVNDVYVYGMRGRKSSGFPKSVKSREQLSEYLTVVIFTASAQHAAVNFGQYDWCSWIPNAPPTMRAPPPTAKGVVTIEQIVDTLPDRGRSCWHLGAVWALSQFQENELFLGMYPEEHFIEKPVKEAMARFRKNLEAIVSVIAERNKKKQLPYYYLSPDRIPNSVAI
# note: boundary value 2 µM maps to -1; IC50 below it maps to 1

stdin: Determine whether this compound shows IC50 lower than 2 µM (ties excluded): COc1ccc2c(c1)c(CNC(=O)NO)c(C)n2C(=O)c1ccc(Cl)cc1 [Compound 1]
stdout: -1

stdin: Is IC50 of O=C(NO)NCc1ccccc1Nc1c(Cl)cccc1Cl [Compound 3] strictly below 2 µM?
stdout: 1

stdin: Quick check: does COC(=O)CNC(=O)c1cc(C(C)(C)C)c(O)c(C(C)(C)C)c1 [Compound 5] have IC50 under 2 µM?
stdout: -1

stdin: Would you kindly verify if IC50 of C#CCNC(=O)c1cc(C(C)(C)C)c(O)c(C(C)(C)C)c1 [Compound 7] is strictly less than 2 µM?
stdout: -1

stdin: Just wondering, is IC50 of CC(NC(=O)NO)c1ccc(-c2ccccc2)c(F)c1 (centres unmarked) [Compound 2] below 2 µM?
stdout: 1

---

For each entry below, report its pIC50 value.
Molecular target: COX-2 human recombinant enzyme (Homo sapiens, UniProt P35354)
Sequence (P35354 18-604): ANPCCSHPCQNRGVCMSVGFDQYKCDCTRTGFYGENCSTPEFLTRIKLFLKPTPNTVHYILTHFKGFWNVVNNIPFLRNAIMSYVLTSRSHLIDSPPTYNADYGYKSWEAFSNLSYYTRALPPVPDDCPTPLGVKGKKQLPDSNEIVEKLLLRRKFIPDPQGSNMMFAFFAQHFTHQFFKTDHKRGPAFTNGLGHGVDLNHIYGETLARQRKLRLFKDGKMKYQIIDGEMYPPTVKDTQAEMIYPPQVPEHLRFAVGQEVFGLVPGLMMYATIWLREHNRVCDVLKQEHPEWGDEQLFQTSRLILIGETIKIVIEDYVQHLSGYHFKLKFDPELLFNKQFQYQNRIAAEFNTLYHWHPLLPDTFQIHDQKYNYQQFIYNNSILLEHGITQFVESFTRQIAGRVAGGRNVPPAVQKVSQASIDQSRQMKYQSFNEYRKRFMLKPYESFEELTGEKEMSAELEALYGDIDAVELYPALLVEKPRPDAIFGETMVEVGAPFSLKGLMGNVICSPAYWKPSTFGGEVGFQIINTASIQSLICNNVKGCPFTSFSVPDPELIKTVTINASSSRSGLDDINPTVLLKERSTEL
Test: Fluorometric COX-2 inhibitor screening kit
Conditions: IC50 ± standard error
Procedure: The COX-1 and COX-2 inhibitory activates of the synthesized compounds were tested using fluorometric COX-1 (Catalog Number: ab204698) and COX-2 (Catalog Number: ab283401) inhibitor screening kits (Abcam, United Kingdom). […] The EC, SC, IC and tested compounds at all concentrations were analyzed in triplicates. Two points (T1 and T2) in the linear range of the plot were chosen and corresponding fluorescence values (RFU1 and RFU2) were obtained. […]
pIC50: −log10 of the molar value.

stdin: # assay system COX-2 human recombinant enzyme (Homo sapiens, UniProt P35354): give pIC50 of CCOc1ccccc1NC(=O)N(C)C
stdout: < 4.00

stdin: Report pIC50 from COX-2 human recombinant enzyme (Homo sapiens, UniProt P35354) testing of C#CCNC(=O)c1cc(C(C)(C)C)c(O)c(C(C)(C)C)c1
stdout: < 4.00

stdin: Quote COX-2 human recombinant enzyme (Homo sapiens, UniProt P35354) pIC50 for entry COc1ccc2cc(C(C)N(O)C(C)=O)ccc2c1 (stereo not drawn) .
stdout: 4.08

---

Assignment: determine reported Oxy score (OS), 2 h incubation for the given molecules.
Tested on: human serum pool
Experiment: Redox activity (oxy score from TOS, PAB, TAS, SHG) in vitro in human serum pool
Settings: 37 °C, 2 h, without TBH, median (interquartile range), average of five concentrations

stdin: Fill: Oxy score (OS), 2 h incubation (human serum pool) for this molecule C#CCNC(=O)c1cc(C(C)(C)C)c(O)c(C(C)(C)C)c1
stdout: 3.12 (2.21–3.47)

stdin: // output Oxy score (OS), 2 h incubation; input COc1ccc2cc(C(C)N(O)C(C)=O)ccc2c1 (stereo not drawn) ; system human serum pool
stdout: 0.24 (−0.06–0.58)

stdin: State the measured Oxy score (OS), 2 h incubation (human serum pool) of COc1ccc2c(c1)c(CNC(=O)NO)c(C)n2C(=O)c1ccc(Cl)cc1
stdout: −0.43 (−1.27–3.13)

stdin: Supply Oxy score (OS), 2 h incubation measured with human serum pool for C=CCNC(=O)c1cc(C(C)(C)C)c(O)c(C(C)(C)C)c1 .
stdout: 0.52 (0.08–1.52)

stdin: GET Oxy score (OS), 2 h incubation where system = human serum pool and item = CC(NC(=O)NO)c1ccc(-c2ccccc2)c(F)c1 (stereo not drawn)
stdout: 3.28 (−0.68–16.66)

stdin: Specify Oxy score (OS), 2 h incubation for CC(=O)N(O)C(C)c1ccc(CC(C)C)cc1 (stereo not drawn) , system human serum pool.
stdout: −0.22 (−0.65–0.82)

stdin: Given CC(C)(C)c1cc(C=C2SC(=S)N(N)C2=O)cc(C(C)(C)C)c1O , report its Oxy score (OS), 2 h incubation on human serum pool.
stdout: 0.75 (0.56–0.94)

stdin: Output reported Oxy score (OS), 2 h incubation of the molecule COC(=O)C(Cc1c[nH]cn1)NC(=O)c1cc(C(C)(C)C)c(O)c(C(C)(C)C)c1 (stereo not drawn) on human serum pool.
stdout: 0.24 (−0.24–0.89)

stdin: State, for human serum pool, measured Oxy score (OS), 2 h incubation of the molecule listed here: Cc1c(C)c2c(c(C)c1O)CCC(C)(C(=O)O)O2 (stereo not drawn) [Trolox, reference compound]
stdout: 0.54 (−0.66–2.43)

stdin: Report value: Oxy score (OS), 2 h incubation, system: human serum pool, molecule: Cc1ccc(-c2cc(C(F)(F)F)nn2-c2ccc(S(N)(=O)=O)cc2)cc1 [Celecoxib, reference compound]
stdout: 5.66 (2.92–12.90)

stdin: Supply Oxy score (OS), 2 h incubation measured with human serum pool for COC(=O)CNC(=O)c1cc(C(C)(C)C)c(O)c(C(C)(C)C)c1 .
stdout: 0.29 (−0.30–1.23)

stdin: Consider the molecule CC(C)(C)OO [TBH, tert-butyl hydroperoxide, reference compound] tested on human serum pool; state its Oxy score (OS), 2 h incubation.
stdout: 6.40 (4.66–11.59)

stdin: Provide Oxy score (OS), 2 h incubation, tested on human serum pool, for CN(C)C(=O)Nc1ccccc1C(=O)O .
stdout: 0.09 (−0.79–1.80)

stdin: Tell me Oxy score (OS), 2 h incubation of Cc1cc(C(C)(C)C)c(O)c(C(C)(C)C)c1 [BHT, Butylated hydroxytoluene, reference compound] when tested on human serum pool.
stdout: 3.08 (2.73–3.26)

stdin: State, for human serum pool, measured Oxy score (OS), 2 h incubation of the molecule listed here: CC(c1cc2ccccc2s1)N(O)C(N)=O (stereo not drawn) [Zileuton, reference compound]
stdout: 2.60 (−7.86–7.54)

stdin: Output reported Oxy score (OS), 2 h incubation of the molecule NC(N)=O [Urea, urea, reference compound] on human serum pool.
stdout: 3.48 (3.44–4.08)

stdin: Fill in: Oxy score (OS), 2 h incubation on human serum pool, entry O=C(NO)NCc1ccccc1Nc1c(Cl)cccc1Cl
stdout: 1.58 (−0.38–3.45)

stdin: Fill in: Oxy score (OS), 2 h incubation on human serum pool, entry CCOc1ccccc1NC(=O)N(C)C
stdout: 0.03 (−0.96–1.46)

---

Target: COX-1 ovine enzyme (Ovis aries, UniProt P05979)
Construct: purchased Abcam ab204698
Sequence (P05979 25-600): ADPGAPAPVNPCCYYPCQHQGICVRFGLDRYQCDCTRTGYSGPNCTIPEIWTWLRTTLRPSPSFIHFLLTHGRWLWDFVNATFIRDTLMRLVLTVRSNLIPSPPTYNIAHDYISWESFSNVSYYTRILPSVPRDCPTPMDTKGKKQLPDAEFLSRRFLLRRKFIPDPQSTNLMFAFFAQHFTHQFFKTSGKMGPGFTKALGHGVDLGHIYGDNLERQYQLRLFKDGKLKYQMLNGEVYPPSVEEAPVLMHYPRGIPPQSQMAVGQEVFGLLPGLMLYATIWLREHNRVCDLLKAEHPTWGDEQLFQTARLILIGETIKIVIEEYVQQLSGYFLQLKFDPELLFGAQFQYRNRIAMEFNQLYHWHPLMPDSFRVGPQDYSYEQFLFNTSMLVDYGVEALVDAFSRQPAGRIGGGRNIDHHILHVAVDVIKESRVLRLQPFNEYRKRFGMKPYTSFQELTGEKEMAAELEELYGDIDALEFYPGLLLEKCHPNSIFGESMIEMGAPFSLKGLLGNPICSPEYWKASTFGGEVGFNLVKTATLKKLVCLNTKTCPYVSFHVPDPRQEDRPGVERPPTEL
Test: Fluorometric COX-1 inhibitor screening kit
Format: biochemical
Conditions: at 100 µM concentration
ATTRIBUTE_MEASURED: inhibition at 100 µM

stdin: Using COX-1 ovine enzyme (Ovis aries, UniProt P05979) as the test system, report measured inhibition at 100 µM of C=CCNC(=O)c1cc(C(C)(C)C)c(O)c(C(C)(C)C)c1 [Compound 6] .
stdout: < 50%

stdin: State recorded inhibition at 100 µM with COX-1 ovine enzyme (Ovis aries, UniProt P05979), entry COc1ccc2c(c1)c(CNC(=O)NO)c(C)n2C(=O)c1ccc(Cl)cc1 [Compound 1] , no comment.
stdout: < 50%

stdin: System COX-1 ovine enzyme (Ovis aries, UniProt P05979). Read-out inhibition at 100 µM. Item CC(NC(=O)NO)c1ccc(-c2ccccc2)c(F)c1 (stereo not drawn) [Compound 2] . Report value.
stdout: < 50%
